assay-target: bovine erythrocyte CA-II (Bos taurus)
run-description: CA-II in vitro inhibition assay
Type: biochemical
condition-parameters: read-out: IC50 ± μM (SEM); bovine CA-II; triplicate, SEM
measure-name: IC50 (µM)
Write it as a number; the unit µM goes unstated.

Q: Quick one: IC50 for COc1ccc(-n2c(-c3ccc([N+](=O)[O-])cc3)cs/c2=N/N=C/c2ccc(N3CCOCC3)cc2)cc1 ?
Result: 16.5

Q: Returns the measured IC50 for the input compound. Input: O=[N+]([O-])c1cccc(-n2c(-c3ccccc3)cs/c2=N/N=C/c2ccc(N3CCOCC3)cc2)c1
Result: 27.4

Q: Can you look up the measured IC50 of C(=N\N=c1\scc(-c2ccccc2)n1C1CCCCC1)/c1ccc(N2CCOCC2)cc1 for me?
Result: 30.2

Q: Endpoint output: IC50 of Cc1cccc(C)c1-n1c(-c2ccc(Cl)cc2)cs/c1=N/N=C/c1ccc(N2CCOCC2)cc1 . Value?
Result: 38.6

Q: Look up IC50 for this compound: Clc1ccc(-c2cs/c(=N/N=C/c3ccc(N4CCOCC4)cc3)n2Cc2ccccc2)cc1
Result: 35.4

###

Task for the reader: assign each of the following molecules its reported Percent inhibition (0.5 mM).
assay-target: bovine erythrocyte CA-II (Bos taurus, UniProt P00921)
Sequence (P00921 whole entry): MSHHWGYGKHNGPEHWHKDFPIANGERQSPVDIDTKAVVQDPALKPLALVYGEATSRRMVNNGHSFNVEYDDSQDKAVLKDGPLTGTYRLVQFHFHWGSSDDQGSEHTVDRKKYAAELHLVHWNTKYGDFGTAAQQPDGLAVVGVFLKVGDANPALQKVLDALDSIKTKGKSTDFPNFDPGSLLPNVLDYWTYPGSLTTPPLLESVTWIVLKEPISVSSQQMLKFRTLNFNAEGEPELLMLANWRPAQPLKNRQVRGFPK
run-description: CA-II in vitro inhibition assay
Type: biochemical
condition-parameters: compound at 0.5 mM; bovine CA-II
Hi! Could you send only the number? It should be in %, unit omitted.

Q: Given C(=N\N=c1\scc(-c2ccccc2)n1-c1cccc2ccccc12)/c1ccc(N2CCOCC2)cc1 , state its recorded Percent inhibition (0.5 mM).
Result: 80.20

Q: # get_value(readout='Percent inhibition (0.5 mM)', item= C(=N\N=c1\scc(-c2ccccc2)n1Cc1ccccc1)/c1ccc(N2CCOCC2)cc1 )
Result: 86.61

Q: I am curious: what Percent inhibition (0.5 mM) value has been reported for Brc1ccc(-c2cs/c(=N/N=C/c3ccc(N4CCOCC4)cc3)n2-c2ccccc2)cc1 ?
Result: 84.95

Q: Could you tell me which Percent inhibition (0.5 mM) is on file for O=[N+]([O-])c1cccc(-n2c(-c3ccccc3)cs/c2=N/N=C/c2ccc(N3CCOCC3)cc2)c1 ?
Result: 83.11

Q: Entry COc1ccc(-n2c(-c3ccc(Cl)cc3)cs/c2=N/N=C/c2ccc(N3CCOCC3)cc2)cc1 : reported Percent inhibition (0.5 mM) = ?
Result: 70.35

Q: If you can, please state the reported Percent inhibition (0.5 mM) value of Clc1ccc(-c2cs/c(=N/N=C/c3ccc(N4CCOCC4)cc3)n2Cc2ccccc2)cc1 .
Result: 80.69

Q: Quick one: Percent inhibition (0.5 mM) for COc1ccc(-n2c(-c3ccc([N+](=O)[O-])cc3)cs/c2=N/N=C/c2ccc(N3CCOCC3)cc2)cc1 ?
Result: 88.69
